Listed next: entries and their corresponding log10 of IC50.
system tested: KDM5B (Homo sapiens (Human))
Sequence (Q9UGL1 whole entry): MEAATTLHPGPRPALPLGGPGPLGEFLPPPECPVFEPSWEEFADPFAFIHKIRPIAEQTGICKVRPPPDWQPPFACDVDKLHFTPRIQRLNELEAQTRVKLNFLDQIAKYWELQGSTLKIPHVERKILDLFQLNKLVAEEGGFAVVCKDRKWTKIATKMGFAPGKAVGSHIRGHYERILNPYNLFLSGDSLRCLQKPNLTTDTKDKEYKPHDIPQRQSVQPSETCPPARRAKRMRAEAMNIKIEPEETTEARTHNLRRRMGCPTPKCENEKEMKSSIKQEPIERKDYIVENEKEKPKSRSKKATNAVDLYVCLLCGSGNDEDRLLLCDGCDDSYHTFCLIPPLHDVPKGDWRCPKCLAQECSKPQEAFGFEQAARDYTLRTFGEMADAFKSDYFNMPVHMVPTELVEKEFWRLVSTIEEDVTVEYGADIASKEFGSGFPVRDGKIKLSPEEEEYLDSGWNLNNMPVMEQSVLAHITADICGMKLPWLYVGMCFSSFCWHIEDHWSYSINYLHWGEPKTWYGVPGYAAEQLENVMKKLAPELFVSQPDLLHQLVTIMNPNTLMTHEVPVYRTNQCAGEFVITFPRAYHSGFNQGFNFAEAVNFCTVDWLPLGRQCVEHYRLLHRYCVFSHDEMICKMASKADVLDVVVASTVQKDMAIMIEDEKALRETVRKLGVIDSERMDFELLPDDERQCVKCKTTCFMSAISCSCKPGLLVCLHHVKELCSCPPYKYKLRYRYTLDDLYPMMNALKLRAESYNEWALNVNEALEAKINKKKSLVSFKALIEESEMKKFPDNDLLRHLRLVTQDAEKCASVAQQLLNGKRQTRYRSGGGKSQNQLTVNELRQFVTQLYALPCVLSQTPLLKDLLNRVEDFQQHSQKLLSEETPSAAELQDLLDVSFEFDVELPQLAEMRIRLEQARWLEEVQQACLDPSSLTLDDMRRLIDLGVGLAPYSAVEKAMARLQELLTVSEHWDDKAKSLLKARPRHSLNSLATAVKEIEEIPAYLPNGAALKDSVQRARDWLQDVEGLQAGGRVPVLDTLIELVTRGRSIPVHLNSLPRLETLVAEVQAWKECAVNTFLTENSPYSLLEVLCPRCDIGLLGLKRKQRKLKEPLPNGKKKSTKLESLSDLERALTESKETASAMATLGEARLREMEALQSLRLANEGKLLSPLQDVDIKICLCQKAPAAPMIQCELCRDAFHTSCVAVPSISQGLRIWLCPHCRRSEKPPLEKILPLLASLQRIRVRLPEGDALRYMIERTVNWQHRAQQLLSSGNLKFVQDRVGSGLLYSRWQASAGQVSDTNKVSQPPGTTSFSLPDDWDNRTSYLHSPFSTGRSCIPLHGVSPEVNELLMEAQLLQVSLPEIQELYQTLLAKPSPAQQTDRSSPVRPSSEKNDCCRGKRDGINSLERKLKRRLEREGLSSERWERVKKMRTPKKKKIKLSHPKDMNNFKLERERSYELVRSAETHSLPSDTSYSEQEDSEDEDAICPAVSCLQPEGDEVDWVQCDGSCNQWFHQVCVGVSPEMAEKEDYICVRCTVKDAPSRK
method: KDM5B TR-FRET Enzyme Activity Assay
setup conditions: LANCE TR-FRET; 5 nM full-length recombinant KDM5B; ten point titration 100000 nM to 5.08 nM
The figures below represent log10 of IC50, where IC50 is stated in µM.

The cases that follow already have their log10 of IC50 on record.
- compound: "CC(C)c1c(/C=C/c2ccccc2)[nH]c2ncnn2c1=O [Example 11-55]"
  log10 of IC50: -2.02
- compound: "CC(C)c1c(-c2ccc(C(O)C(F)(F)F)cc2)[nH]c2ncnn2c1=O (centres unmarked) [Example 11-50]"
  log10 of IC50: -1.70

Can you look up the measured log10 of IC50 of Cc1csc(-c2[nH]c3ncnn3c(=O)c2C(C)C)c1 [Example 11-115] for me?
-0.91

What does the data say about its log10 of IC50? Entry: CC(C)c1c(-c2ccc3nccn3c2)[nH]c2ncnn2c1=O [Example 11-69]
-1.59

Can you share its log10 of IC50? I mean this compound: CC(C)c1c(-c2ccc3nc[nH]c3c2)[nH]c2ncnn2c1=O [Example 11-70]
-1.87

Suppose we examine the compound COCC(C)(C)n1cc(-c2[nH]c3ncnn3c(=O)c2C(C)C)cn1 [Example 11-92] ; what log10 of IC50 value has been reported?
-2.28

Would you mind telling me what log10 of IC50 value was observed for CC(C)c1c(-c2cnn(Cc3ccncc3)c2)[nH]c2ncnn2c1=O [Example 11-15] ?
-2.12

Please give the measured log10 of IC50 for this compound: CC(C)c1c(-c2cnc(-c3ccc(F)cc3)o2)[nH]c2ncnn2c1=O [Example 11-113]
-1.76

Item CC(C)c1c(-c2ccc(C#N)nc2)[nH]c2ncnn2c1=O [Example 11-131] has what recorded log10 of IC50?
-1.31

May I ask what log10 of IC50 has been recorded for COC(=O)Cc1c(C)[nH]c2ncnn2c1=O [Example 8-7] ?
1.33

Find the recorded log10 of IC50 belonging to CC(C)c1c(-c2cc(C3CCC3)cs2)[nH]c2ncnn2c1=O [Example 11-142] and report it.
-0.95

Suppose we examine the compound COCCn1cc(-c2[nH]c3ncnn3c(=O)c2C(C)C)cn1 [Example 11-16] ; what log10 of IC50 value has been reported?
-2.24

Bench note: what log10 of IC50 did O=c1cc(-c2ccncc2)[nH]c2ncnn12 [Example 8-22] show?
1.28

What measured log10 of IC50 goes with CC(C)c1c(-c2csc(-n3cccc3)n2)[nH]c2ncnn2c1=O [Example 11-140] ?
-0.91

Item under review: Cc1ccc(-c2[nH]c3ncnn3c(=O)c2C(C)C)o1 [Example 11-117] . Reported log10 of IC50?
-0.26

====

Entries and their measured pIC50 follow.
system tested: KDM5B (Homo sapiens (Human))
method: KDM5B TR-FRET Enzyme Activity Assay
Assay type: biochemical
setup conditions: LANCE TR-FRET; 5 nM full-length recombinant KDM5B; ten point titration 100000 nM to 5.08 nM
Lab note: report pIC50 as minus log10 of the concentration in molar units, number only.

The examples below pair each entry with its known result.
- compound: "CC(C)c1c(C2=CCC(O)CC2)[nH]c2ncnn2c1=O (stereo not drawn) [Example 11-36]"
  pIC50: 6.86
- compound: "CC(C)c1c(-c2ccccc2)[nH]c2ncnn2c1=O [Example 8-35]"
  pIC50: 6.57
- compound: "CC(C)c1c(-c2coc(-c3ccc(F)cc3)n2)[nH]c2ncnn2c1=O [Example 11-43]"
  pIC50: 7.62
- compound: "CC(C)c1c(-c2ccc(CC#N)cc2)[nH]c2ncnn2c1=O [Example 11-67]"
  pIC50: 7.74
- compound: "CC(C)c1c(-c2cccnc2)[nH]c2ncnn2c1=O [Example 11-25]"
  pIC50: 7.33
- compound: "CC(C)c1c(C2=CCCN(C)C2)[nH]c2ncnn2c1=O [Example 11-35]"
  pIC50: 6.30
- compound: "CC(C)(C)c1c(-c2ccc(F)cc2)[nH]c2ncnn2c1=O [Example 11-5]"
  pIC50: 5.27
- compound: "COC(=O)c1cccc(-c2[nH]c3ncnn3c(=O)c2C(C)C)c1 [Example 11-80]"
  pIC50: 7.47

We next turn to a different compound, shown below.
Entry CC(C)c1c(-c2ccn(C)c2)[nH]c2ncnn2c1=O [Example 11-27] has what pIC50?
7.75
